- assay.system: Carboxypeptidase A1 (Bos taurus, UniProt P00730)
- Sequence (P00730 whole entry): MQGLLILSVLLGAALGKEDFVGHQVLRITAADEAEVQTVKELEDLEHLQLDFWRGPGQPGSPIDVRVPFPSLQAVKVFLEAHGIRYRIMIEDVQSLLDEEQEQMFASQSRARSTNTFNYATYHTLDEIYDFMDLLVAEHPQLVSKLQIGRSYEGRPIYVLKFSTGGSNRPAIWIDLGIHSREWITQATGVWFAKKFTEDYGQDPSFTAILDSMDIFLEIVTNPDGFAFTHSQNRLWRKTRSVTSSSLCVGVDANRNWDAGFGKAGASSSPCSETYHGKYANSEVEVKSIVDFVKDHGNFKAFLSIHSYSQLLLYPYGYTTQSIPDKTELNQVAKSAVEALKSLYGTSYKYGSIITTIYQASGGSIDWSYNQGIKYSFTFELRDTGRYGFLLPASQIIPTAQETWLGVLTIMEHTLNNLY
pKi: −log10 of the molar value.
If the reported pKi equals or exceeds 6, assign satisfied. If not, assign not satisfied.

| molecule | class.label |
| --- | --- |
| O=C(O)[C@H](CS)NCCc1ccccc1 | satisfied |
| CC(C)CC(CS)C(=O)O (configuration not stated) | satisfied |
| O=C(O)C(CS)NCc1ccccc1 (configuration not stated) | satisfied |
| O=C(O)C(CS)NCC1CCCCC1 (configuration not stated) | not satisfied |
| CC(C)CNC(CS)C(=O)O (configuration not stated) | not satisfied |
